// data source = patent US11912703B2

Entries and their pIC50 values follow.
Target: human TLR8 (Homo sapiens (Human), UniProt Q9NR97)
Sequence (Q9NR97 27-1041): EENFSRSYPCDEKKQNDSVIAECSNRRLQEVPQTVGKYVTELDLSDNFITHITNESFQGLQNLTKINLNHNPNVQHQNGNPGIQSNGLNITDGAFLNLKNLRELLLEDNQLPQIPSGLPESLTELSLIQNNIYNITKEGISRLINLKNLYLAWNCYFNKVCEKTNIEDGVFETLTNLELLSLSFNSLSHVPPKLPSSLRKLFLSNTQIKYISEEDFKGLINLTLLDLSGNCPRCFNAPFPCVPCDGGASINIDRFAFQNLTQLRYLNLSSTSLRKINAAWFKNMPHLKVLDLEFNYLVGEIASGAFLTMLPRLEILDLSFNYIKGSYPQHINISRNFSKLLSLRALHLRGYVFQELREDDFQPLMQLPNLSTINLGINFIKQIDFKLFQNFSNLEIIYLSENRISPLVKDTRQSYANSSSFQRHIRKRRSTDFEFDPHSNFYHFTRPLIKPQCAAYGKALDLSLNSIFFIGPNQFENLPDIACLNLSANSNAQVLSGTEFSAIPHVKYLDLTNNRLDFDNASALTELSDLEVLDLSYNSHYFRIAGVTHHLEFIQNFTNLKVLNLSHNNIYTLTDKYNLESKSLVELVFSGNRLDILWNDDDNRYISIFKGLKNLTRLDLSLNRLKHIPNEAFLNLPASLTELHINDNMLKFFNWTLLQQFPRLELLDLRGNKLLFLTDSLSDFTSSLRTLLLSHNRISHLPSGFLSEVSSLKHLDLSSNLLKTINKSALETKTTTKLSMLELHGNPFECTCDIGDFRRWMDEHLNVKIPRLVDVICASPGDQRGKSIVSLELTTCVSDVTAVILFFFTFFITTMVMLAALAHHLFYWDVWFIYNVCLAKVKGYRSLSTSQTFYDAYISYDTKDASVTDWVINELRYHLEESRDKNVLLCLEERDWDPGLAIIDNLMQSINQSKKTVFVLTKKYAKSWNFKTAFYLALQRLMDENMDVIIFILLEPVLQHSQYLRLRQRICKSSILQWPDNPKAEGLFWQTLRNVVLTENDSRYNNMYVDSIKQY
Test: TLR8 inhibition reporter assay (HEK-Blue SEAP);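 also: SEAP driven by IFN-β minimal promoter with five NF-κB and AP-1 sites, compounds tested 0.05 nM to 50 µM, 22 h incubation, inhibition relative to agonist plus DMSO wells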
Settings: read-out: TLR8 IC50; HEK-Blue cells overexpressing human TLR8, R848 15.9 μM stimulation, SEAP reporter
pIC50: −log10 of the molar value.
Readout Kind: pIC50

{"Molecule": "COc1cc(-c2[nH]c3cnc(C4CCC(N(C)CC(N)=O)CC4)c(F)c3c2C(C)C)cn2ncnc12 (centres unmarked) [Example 78]", "Measured Result": 7.96}
{"Molecule": "CNC1CCN(c2ncc3[nH]c(-c4cc(OC)c5ncnn5c4)c(C(C)C)c3c2F)CC1 [Example 191]", "Measured Result": 8.96}
{"Molecule": "Cc1cc(-c2[nH]c3cnc(C4CCN(C(C)C)CC4)c(F)c3c2C(C)C)cc(C)n1 [Example 97]", "Measured Result": 8.13}
{"Molecule": "CCN(C)C1CCC(c2ncc3[nH]c(-c4cn5ncnc5c(C)c4C)c(C(C)C)c3c2C)CC1 (centres unmarked) [Example 143]", "Measured Result": 7.48}
{"Molecule": "COc1cc(-c2[nH]c3cnc(C4CCC(NC5COC5)CC4)c(C)c3c2C(C)C)cn2ncnc12 (centres unmarked) [Example 243]", "Measured Result": 8.32}
{"Molecule": "Cc1c(-c2[nH]c3cnc(C4CCC(NC(C)C)CC4)cc3c2C(C)C)cn2ncnc2c1C (centres unmarked) [Example 318]", "Measured Result": 7.68}
{"Molecule": "Cc1c(-c2[nH]c3cnc(C4CCC(N(C)C(C)C)CC4)c(F)c3c2C(C)C)cn2ncnc2c1C (centres unmarked) [Example 168]", "Measured Result": 8.35}
{"Molecule": "COc1cc(-c2[nH]c3cnc(C4CCC(N(C)CC(=O)N(C)C)CC4)c(F)c3c2C(C)C)cn2ncnc12 (centres unmarked) [Example 79]", "Measured Result": 8.44}
